target: SIK2 (Homo sapiens, UniProt Q9H0K1); assay: SIK2 Enzymatic Assay High Version 2 (High ATP); assay type: biochemical; conditions: enzyme 6 nM, 6 mM ATP and 400 μM HDAC5tide (each 2× final concentration); 30 minutes pre-incubation, 2 hours; ADP-Glo Max luminescence; read-out: SIK2 high ATP IC50 (μM) (Test Example 2)
Sequence (Q9H0K1 whole entry, species assumed): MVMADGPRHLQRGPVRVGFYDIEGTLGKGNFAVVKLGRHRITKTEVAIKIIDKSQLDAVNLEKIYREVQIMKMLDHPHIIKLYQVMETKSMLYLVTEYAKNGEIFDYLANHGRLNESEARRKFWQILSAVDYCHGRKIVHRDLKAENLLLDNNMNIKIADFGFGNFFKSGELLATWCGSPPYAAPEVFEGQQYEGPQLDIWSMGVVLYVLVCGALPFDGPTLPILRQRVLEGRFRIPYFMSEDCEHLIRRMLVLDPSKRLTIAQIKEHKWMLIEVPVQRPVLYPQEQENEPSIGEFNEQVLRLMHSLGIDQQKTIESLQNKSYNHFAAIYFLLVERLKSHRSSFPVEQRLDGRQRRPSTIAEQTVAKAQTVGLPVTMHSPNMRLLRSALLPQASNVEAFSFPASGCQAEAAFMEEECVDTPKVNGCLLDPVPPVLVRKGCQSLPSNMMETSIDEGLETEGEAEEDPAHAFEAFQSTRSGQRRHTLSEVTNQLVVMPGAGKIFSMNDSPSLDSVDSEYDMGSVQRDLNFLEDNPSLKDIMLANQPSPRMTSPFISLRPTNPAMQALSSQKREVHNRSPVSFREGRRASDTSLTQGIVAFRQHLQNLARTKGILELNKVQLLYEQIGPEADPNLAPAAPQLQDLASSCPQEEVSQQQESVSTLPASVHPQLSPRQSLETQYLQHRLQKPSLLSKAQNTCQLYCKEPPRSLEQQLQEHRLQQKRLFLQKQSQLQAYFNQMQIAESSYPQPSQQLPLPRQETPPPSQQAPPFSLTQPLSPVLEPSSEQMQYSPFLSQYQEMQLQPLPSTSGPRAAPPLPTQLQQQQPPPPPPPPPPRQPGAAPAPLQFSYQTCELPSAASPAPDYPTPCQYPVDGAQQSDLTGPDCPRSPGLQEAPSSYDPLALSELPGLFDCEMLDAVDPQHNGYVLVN
Labelling field: enter satisfied if recorded IC50 is less than 0.008 µM. Enter not satisfied if it equals or exceeds that cut-off.

Take the compound Cc1cc(Nc2cc3cc(-c4cc(OC(F)F)ncc4OCC(C)(C)C#N)ccn3n2)nn(C)c1=O [Example 684] and say whether its IC50 is less than 0.008 µM.
not satisfied

Please state whether IC50 is below 0.008 µM for Cc1cc(-c2ccn3nc(Nc4ccc(C(F)(F)F)cn4)cc3c2)c(OC[C@@H]2CNCCO2)cn1 [Example 424]
satisfied

Lab note: confirm whether the reported IC50 for this compound is below 0.008 µM, equality not counting. compound: CCc1nc(C)cc(Nc2cc3cc(-c4cc(C)ncc4OCC(C)(C)O)ccn3n2)n1 [Example 202]
satisfied

New cases:
Identify whether the compound Cc1cc(-c2ccn3nc(NC(=O)C4CC4)cc3c2)c(OC[C@H](N)c2ccccc2)cn1 (single isomer, unassigned) [Example 465] records IC50 below 0.008 µM.
not satisfied

State whether 0.008 µM exceeds IC50 recorded for Cc1cc(-c2ccn3nc(Nc4cc(C)c(C(=O)NC5CC5)c(C)n4)cc3c2)c(O[C@H]2CC[C@H](O)CC2)cn1 [Example 334] .
satisfied

IC50 strictly < 0.008 µM for this compound? Cc1cc(-c2ccn3nc(Nc4cc(C)nc(C)n4)cc3c2)c(O[C@@H]2CCS(=O)(=O)C2)cn1 [Example 344]
satisfied

Determine if CNc1nc(C)cc(Nc2cc3cc(-c4cc(C)ncc4O[C@H]4CC[C@H](O)CC4)ccn3n2)n1 [Example 227] shows IC50 strictly lower than 0.008 µM.
satisfied

----------
biological target: SIK2 (Homo sapiens, UniProt Q9H0K1); experiment: SIK2 Enzymatic Assay High Version 2 (High ATP); assay type: biochemical
Measured IC50 values are reported for all entries that follow.

Entry CNC(=O)c1ccc(Nc2cc3cc(-c4cc(C)ncc4O[C@H]4C[C@H]5COC[C@@H](C4)N5)ccn3n2)nc1 [Example 173] needs its IC50 filled in; supply it.
< 0.847 nM

Tell us which IC50 value is on record for C[C@]1(O)CC[C@@H](Oc2cnc(C#N)cc2-c2ccn3nc(NC(=O)C4CC4)cc3c2)CC1 [Example 89]
3.04 nM

Give reported IC50 value for CN1CC[C@@H](COc2cnccc2-c2ccn3nc(NC(=O)C4CC4)cc3c2)C1 [Example 489]
10.3 nM

Give the value of IC50 reported for the following: O=C(Nc1cc2cc(-c3cc(OC(F)F)ncc3OC[C@@H]3CNCCO3)ccn2n1)C1CC1 [Example 503]
68.2 nM

New cases:
Please give measured IC50 of the following entry: Cc1cc(Nc2cc3cc(-c4cc(C)ncc4O[C@H]4C[C@H]5COC[C@@H](C4)N5)ccn3n2)ncn1 [Example 396]
1.1 nM

Consider the compound Cc1cc(Nc2cc3cc(-c4cc(C(F)(F)F)ncc4OC[C@H]4CCN4C)ccn3n2)nc(C)n1 [Example 625] . State its measured IC50.
730 nM

Consider the compound N#Cc1cc(-c2ccn3nc(NC(=O)C4CC4)cc3c2)c(OC2CNC2)cn1 [Example 31] and give its recorded IC50.
111 nM

Identify measured IC50 corresponding to Cc1cc(-c2ccn3nc(NC(=O)C4CC4)cc3c2)c(OC[C@H]2CNCCO2)cn1 [Example 166]
15.9 nM

----------
target: SIK2 (Homo sapiens); experiment: SIK2 Enzymatic Assay High Version 2 (High ATP); type: biochemical
Binning of IC50 into classes: Low = under 0.01 µM, Medium = from 0.01 µM up to 0.04 µM, High = 0.04 µM and over

Before answering, review these 3 worked examples.
Hi, small favor: classify O=C(Nc1cc2cc(-c3cc(C(F)F)ccc3O[C@H]3C[C@H]4COC[C@@H](C3)N4)ccn2n1)C1CC1 [Example 481] by its IC50 when you get a moment.
Low

In plain terms, what class is CN1CC[C@H](Oc2cnc(C#N)cc2-c2ccn3nc(NC(=O)C4CC4)cc3c2)C[C@@H]1C(F)(F)F (relative stereo) [Example 30] ?
Low

Sort Cc1cc(-c2ccn3nc(Nc4ccnnc4)cc3c2)c(O[C@H]2C[C@H]3COC[C@@H](C2)N3)cn1 [Example 368] into one of the categories.
Low

***
Any idea which band Cc1cc(-c2ccn3nc(Nc4ncc(F)cn4)cc3c2)c(O[C@H]2C[C@H]3COC[C@@H](C2)N3)cn1 [Example 404] is in?
High

Assign a bin to CCC(=O)c1ccc(O[C@H]2C[C@H]3COC[C@@H](C2)N3)c(-c2ccn3nc(NC(=O)C4CC4)cc3c2)c1 [Example 480]
Low

Record N#CCN1CC[C@H](Oc2cnc(C#N)cc2-c2ccn3nc(NC(=O)C4CC4)cc3c2)C1 [Example 114] — which class?
Low

Assign a bin to CC(=O)N1CCC(Oc2cnc(C#N)cc2-c2ccn3nc(NC(=O)C4CC4)cc3c2)C1 (single isomer, unassigned) [Example 56]
High

Consider Cc1cc(-c2ccn3nc(Nc4ccc(F)cn4)cc3c2)c(O[C@H]2C[C@H]3COC[C@@H](C2)N3C)cn1 [Example 126] . To which IC50 class does it belong?
Low

----------
target: SIK2 (Homo sapiens, UniProt Q9H0K1); test: SIK2 Enzymatic Assay Version 1 (ADP Glo); assay type: biochemical; details: enzyme 0.6 nM, 160 μM ATP and 140 μM HDAC5tide (each 2× final concentration); 30 minutes pre-incubation, 4 hours; ADPGlo luminescence; read-out: SIK2 ADP Glo IC50 (μM) (Test Example 1)
Rule: measured IC50 below 0.001 µM gets rule met; anything equal to or greater than 0.001 µM gets rule not met.

Observe how each entry below is paired with its result.
For Cc1cc(-c2ccn3nc(NC(=O)C4CC4)cc3c2)c(OC[C@@H]2CN[C@H](C)CO2)cn1 [Example 168] , is the recorded IC50 below the cut-off of 0.001 µM?
rule met

Item C[C@@](O)(COc1cnc(C#N)cc1-c1ccn2nc(NC(=O)C3CC3)cc2c1)C(F)(F)F (single isomer, unassigned) [Example 49] : IC50 beneath 0.001 µM, strictly?
rule met

Would you kindly verify if IC50 of Cc1cc(-c2ccn3nc(Nc4cccnc4)cc3c2)c(O[C@H]2CC[C@H](O)CC2)cn1 [Example 290] is strictly less than 0.001 µM?
rule not met

Lab log: compare recorded IC50 with 0.001 µM; is it strictly lower for N#Cc1cc(-c2ccn3nc(NC(=O)C4CC4)cc3c2)c(OC[C@H]2C[C@@H](O)C2)cn1 [Example 68] ?
rule met

Here's an entry: N#Cc1cc(-c2ccn3nc(NC(=O)C4CC4)cc3c2)c(O[C@@H]2CCNCC2(F)F)cn1 [Example 15] . Is its IC50 below 0.001 µM?
rule not met

Strictly below 0.001 µM: is that where IC50 of N#Cc1cc(-c2ccn3nc(NC(=O)C4CC4)cc3c2)c(OC[C@@H]2CCCNC2)cn1 [Example 585] sits?
rule not met

Further cases:
Please determine if N#Cc1cc(-c2ccn3nc(NC(=O)C4CC4)cc3c2)c(N2CC(O)(C(F)(F)F)C2)cn1 [Example 75] is below 0.001 µM in terms of IC50.
rule not met

----------
biological target: SIK2 (Homo sapiens, UniProt Q9H0K1); assay: SIK2 Enzymatic Assay High Version 2 (High ATP); format: biochemical; conditions: enzyme 6 nM, 6 mM ATP and 400 μM HDAC5tide (each 2× final concentration); 30 minutes pre-incubation, 2 hours; ADP-Glo Max luminescence; read-out: SIK2 high ATP IC50 (μM) (Test Example 2)
experimental-endpoint: log10 of IC50 (log10 of the value in µM)
Remember, log10 of IC50, in µM.

Give reported log10 of IC50 value for Cc1cc(Nc2cc3cc(-c4cc(OC(F)F)ncc4OCC(C)(C)C(N)=O)ccn3n2)nc(C)n1 [Example 727]
-1.82

Read the entry Cc1cc(-c2ccn3nc(NC(=O)C4CC4)cc3c2)c(OC[C@](C)(O)C(F)(F)F)cn1 (single isomer, unassigned) [Example 190] and write its reported log10 of IC50.
-1.59

Given Cc1cc(-c2ccn3nc(Nc4cc(C)c(=O)n(C)n4)cc3c2)c(OC2CCC(S(C)(=O)=O)CC2)cn1 (single isomer, unassigned) [Example 306] , respond with its log10 of IC50.
-1.45

Could you please provide reported log10 of IC50 for Cc1cc(-c2ccn3nc(Nc4cc(C)nc(C)n4)cc3c2)c(OC[C@@H]2COC(C)(C)C2)cn1 (single isomer, unassigned) [Example 539] ? Thanks!
-1.22

Identify the reported log10 of IC50 for the following entry. Cc1cc(-c2ccn3nc(NC(=O)C4CC4)cc3c2)c(OCC(C)(N)C(F)(F)F)cn1 (single isomer, unassigned) [Example 160]
-1.35

Check the records and state log10 of IC50 for CC(C)(C#N)COc1cnc(OC(F)F)cc1-c1ccn2nc(Nc3cncc(N)n3)cc2c1 [Example 691]
-3.00

Please give measured log10 of IC50 of the following entry: Cc1cc(C(=O)NCC(C)(C)O)cc(Nc2cc3cc(-c4cc(OC(F)F)ncc4OCC(C)(C)C#N)ccn3n2)n1 [Example 701]
-1.55

Retrieve log10 of IC50 measured for Cc1cc(-c2ccn3nc(Nc4cc(C)nc(C)n4)cc3c2)c(O[C@H]2CCS(=O)(=O)N(C)C2)cn1 (single isomer, unassigned) [Example 355] and print it.
-2.17

Kindly indicate its recorded log10 of IC50. Item: Cc1cc(Nc2cc3cc(-c4cc(C#N)ccc4O[C@H]4CC[C@H](O)CC4)ccn3n2)nc(C)n1 [Example 483]
-1.35

Please indicate log10 of IC50 recorded for CNc1cc(-c2ccn3nc(Nc4cc(C)nc(C)n4)cc3c2)c(OC[C@@H]2CNCCO2)cn1 [Example 501]
-2.76

Look up and report measured log10 of IC50 for this entry: CC#Cc1cc(-c2ccn3nc(Nc4cnn(C)c4)cc3c2)c(OC[C@H]2OCC[C@@H]2O)cn1 [Example 300]
-2.19

Tell me log10 of IC50 reported for COc1ccccc1COc1cnc(C)cc1-c1ccn2nc(Nc3cc(C)nc(C)n3)cc2c1 [Example 271]
-1.63

Recall and state the measured log10 of IC50 for C[C@@H](C#N)Oc1cc(-c2ccn3nc(NC(=O)C4CC4)cc3c2)c(OCC(C)(C)C#N)cn1 (single isomer, unassigned) [Example 726] .
-2.60

Quick one: give measured log10 of IC50 for Cc1cc(-c2ccn3nc(Nc4cc(C)nc(C)n4)cc3c2)c(OCC2(C)COC2)cn1 [Example 546]
-1.62
